tested on: Surinam grass; experiment: Test B pre-/postemergence herbicide test; type: in vivo, Urochloa decumbens; conditions: postemergence, 125 g ai/ha; visual rating, scale 0 (no effect) to 100 (complete control)
Listed here are compounds together with their documented Surinam Grass plant response rating.
Please respond with just the number, no unit label.

Example compounds with recorded Surinam Grass plant response rating:
CCn1nc(C(C)(C)C)cc1C(=O)Nc1cccc(C(=O)NOC)c1 = 10
CCc1nn(C(C)(C)C)cc1C(=O)Nc1ccc(F)c(C(=O)N(C)C)c1 = 0
CCn1nc(C(C)(C)C)cc1C(=O)Nc1cccc(C(C)=NO)c1 = 10
C=CCOC(=O)c1cccc(NC(=O)c2cc(C(C)(C)C)nn2CC)c1C = 10
CC(=NO)c1cccc(NC(=O)c2cc(C(C)(C)C)nn2CC(F)(F)F)c1 = 20

Recorded result, CCCOC(=O)c1cc(NC(=O)c2cc(C(C)(C)C)nn2CC)c(F)cc1F , Surinam Grass plant response rating: 10

Recorded result, CCn1nc(C(C)(C)C)cc1C(=O)Nc1cc(C(N)=O)ccc1F , Surinam Grass plant response rating: 0

Recorded result, CCNC(=O)c1cc(C)nc(NC(=O)c2cc(C(C)(C)C)nn2CC)c1 , Surinam Grass plant response rating: 10

Recorded result, CCn1nc(C(C)(C)C)cc1C(=O)Nc1cccc(C(=O)OC(C)C)c1C , Surinam Grass plant response rating: 0

Recorded result, Cc1nc(C(C)(C)C)sc1C(=O)Nc1cccc(C(=O)NCC(F)(F)F)c1 , Surinam Grass plant response rating: 0

Recorded result, CCn1nc(C(C)(C)C)cc1C(=O)Nc1cc(C(=O)N2CCOCC2)ccc1F , Surinam Grass plant response rating: 10

Recorded result, CCc1cn(C(C)(C)C)nc1C(=O)Nc1cc(C(=O)N(C)C)ccn1 , Surinam Grass plant response rating: 10
